- measurement.target: hAT1R (Homo sapiens, UniProt P30556)
- Sequence (P30556 whole entry): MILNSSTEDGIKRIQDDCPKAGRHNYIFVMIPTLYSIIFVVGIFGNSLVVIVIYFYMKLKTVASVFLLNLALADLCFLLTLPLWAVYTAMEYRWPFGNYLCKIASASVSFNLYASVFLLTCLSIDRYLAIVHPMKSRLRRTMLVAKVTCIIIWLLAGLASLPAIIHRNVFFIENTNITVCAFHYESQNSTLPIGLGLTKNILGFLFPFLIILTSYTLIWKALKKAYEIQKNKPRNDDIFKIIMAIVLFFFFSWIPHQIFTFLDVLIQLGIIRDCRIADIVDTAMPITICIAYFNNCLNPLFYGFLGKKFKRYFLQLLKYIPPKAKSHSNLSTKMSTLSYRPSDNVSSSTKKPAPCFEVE
- assay.explanation: cell-based
- measurement.setup: agonist mode; read-out: BRET P63 EC50
Consider the following compounds; for each one, report its pEC50.
Reminder that pEC50 is minus the log10 of a molar concentration.

Ask: Any idea what its pEC50 is? The compound is CCC1=NC2(CCCC2)C(=O)N1Cc1ccc(-c2cc(-c3cc(C)ccn3)ccc2-c2nn[nH]n2)cc1 [Example 113]
Result: 7.76

Ask: Repeat with CCc1nc2c(C)cc(C)nc2n1Cc1ccc(-c2cc(-c3cn(CCF)nn3)ccc2-c2nnn[nH]2)cc1 [Example 239]
Result: 7.78

Ask: Now the compound CCc1nc2c(C)cc(C)nc2n1Cc1ccc(-c2cc(-c3cc(C(F)F)ccn3)ccc2-c2nn[nH]n2)cc1 [Example 67]
Result: 8.14

Ask: Try this compound next: CCc1nc2c(C)cc(C)nc2n1Cc1ccc(-c2cc(C3CCCCO3)ccc2-c2nn[nH]n2)cc1 (single isomer, unassigned) [Example 78]
Result: 7.14

Ask: How about this compound: CCCCc1nc(Cl)c(C(=O)O)n1Cc1ccc(-c2cc(-c3ccc(C(=O)N(C)C)cc3)ccc2-c2nn[nH]n2)cc1 [Example 390]
Result: 6.90

Ask: Next compound up: CCc1nc2c(C)cc(C)nc2n1Cc1ccc(-c2cc(-c3ccccc3)ccc2-c2nn[nH]n2)cc1F [Example 264]
Result: 8.13

Ask: Another compound to look at: CCOc1nc2cccc(C(=O)O)c2n1Cc1ccc(-c2cc(-c3ccccn3)ccc2-c2noc(=O)[nH]2)cc1 [Example 303]
Result: 7.30

Ask: And CCCCc1nc(Cl)c(C(=O)O)n1Cc1ccc(-c2cc(-c3cn(C(C)C)nc3C(F)(F)F)ccc2-c2nn[nH]n2)cc1 [Example 388] ?
Result: 7.40

Ask: What would you report for CCCCC1=NC2(CCOC2)C(=O)N1Cc1ccc(-c2cc(-c3ccccc3O)ccc2-c2nnn[nH]2)cc1 (single isomer, unassigned) [Example 151] ?
Result: 6.76
